Test: Study 1 Part 1: ascending single-dose PK in healthy men
Format: in vivo, human
Conditions: male, human, plasma, oral, 25 mg, 25 mg single dose, N = 6, read-out: AUCinf, Geometric mean (CV)
attribute_measured: AUC(0-inf) (ng·h/mL)
Express the result in ng·h/mL but write the number alone.

Name the reported AUC(0-inf) value associated with the compound CC(C)(NC(=O)O[C@@H]1CN2CCC1CC2)c1csc(-c2ccc(F)cc2)n1 [Compound 2] 3690

---

Test: Study 1 Part 1: ascending single-dose PK in healthy men
Type: in vivo, human
Conditions: male, human, plasma, oral, 50 mg, 50 mg single dose, N = 6, read-out: AUCinf, Geometric mean (CV)
attribute_measured: AUC(0-inf) (ng·h/mL)
Express the result in ng·h/mL but write the number alone.

Name the reported AUC(0-inf) value associated with the compound CC(C)(NC(=O)O[C@@H]1CN2CCC1CC2)c1csc(-c2ccc(F)cc2)n1 6800
